// provenance: patent US9540325B2

Record form. Attribute: inhibition at 100 µM. Fill in for each entry.
Test system: HCT116 cells
Test: Measurement of effect of inhibiting cancer cell proliferation (MTT)
Type: cell-based, human
Conditions: Homo sapiens, HCT-116, 100 μM, 48 hours, read-out: Cell Growth Inhibition (%) at 100 μM
Structures can show the parent of a compound that is named as a salt.
One number for each entry, in %.

molecule="Cl.N=C(NC(=N)N1CCCCC1)Nc1ccccc1F [Example 15, hydrochloride]" measurement_unit=% measured_number=39.5
molecule="Cl.N=C(NC(=N)N1CCCCC1)Nc1cc(Cl)cc(Cl)c1 [Example 61, hydrochloride]" measurement_unit=% measured_number=97.7
molecule="Cl.N=C(NC(=N)N1CCCCC1)Nc1ccc(F)c(F)c1 [Example 59, hydrochloride]" measurement_unit=% measured_number=97.8

State recorded inhibition at 100 µM for all listed molecules.
1. Cl.N=C(NC(=N)N1CCCCC1)Nc1ccc(F)cc1F [Example 58, hydrochloride]
2. Cl.N=C(NC(=N)N1CCCCC1)Nc1cccc(C(F)(F)F)c1 [Example 24, hydrochloride]
3. CN(C)c1ccc(NC(=N)NC(=N)N2CCCCC2)cc1.Cl [Example 37, hydrochloride]
4. Cl.N=C(NC(=N)N1CCCC1)Nc1ccc(OC(F)(F)F)c(Cl)c1 [Example 56, hydrochloride]
5. Cl.N=C(NC(=N)N1CCCCC1)Nc1cc(F)cc(F)c1 [Example 60, hydrochloride]
6. Cl.N=C(NC(=N)N1CCCCC1)Nc1cc(Br)cc(OC(F)(F)F)c1 [Example 67, hydrochloride]
7. CN(C)C(=N)N=C(N)N [Metformin hydrochloride, reference compound]

[37.4, 97.6, 32.2, 101, 97.6, 97.1, 1.8]

State recorded inhibition at 100 µM for all listed molecules.
1. Cl.N=C(NC(=N)N1CCC1)Nc1ccc(OC(F)(F)F)cc1 [Example 31, hydrochloride]
2. Cl.N=C(NC(=N)N1CCCCC1)Nc1cccc(CO)c1 [Example 12, hydrochloride]
3. Cl.N=C(NC(=N)N1CCCCC1)Nc1ccc(C(F)(F)F)c(F)c1 [Example 49, hydrochloride]
4. Cl.N=C(NC(=N)N1CCCCCC1)Nc1cccc(Cl)c1 [Example 21, hydrochloride]

1. 96.5
2. 17.6
3. 96.5
4. 97

State recorded inhibition at 100 µM for all listed molecules.
1. Cl.N=C(NC(=N)N1CCCCC1)Nc1ccc(Cl)c(C(F)(F)F)c1 [Example 47, hydrochloride]
2. Cl.N=C(NC(=N)N1CCC1)Nc1ccc(OC(F)(F)F)c(Cl)c1 [Example 55, hydrochloride]
3. Cl.N=C(NC(=N)N1CCOCC1)Nc1ccc(OC(F)(F)F)cc1 [Example 34, hydrochloride]

[96.7, 101, 98]

* * *

System: HCT116 cells
Test: Measurement of effect of inhibiting cancer cell proliferation (MTT)
Assay type: cell-based, human
Settings: Homo sapiens, HCT-116, 100 μM, 48 hours, read-out: Cell Growth Inhibition (%) at 100 μM
Record form. Attribute: inhibition at 100 µM. Fill in for each entry.
# output: number + unit

Worked cases, inhibition at 100 µM given:
compound="Cl.N=C(NC(=N)N1CCCCC1)Nc1ccc(F)cc1 [Example 14, hydrochloride]" result=49.7%
compound="COc1cccc(NC(=N)NC(=N)N2CCCCC2)c1.Cl [Example 13, hydrochloride]" result=45.4%
compound="CC(=O)Nc1cccc(NC(=N)NC(=N)N2CCCCC2)c1.Cl [Example 39, hydrochloride]" result=25.5%
compound="Cl.N=C(NC(=N)N1CCCC1)Nc1cccc(Cl)c1 [Example 19, hydrochloride]" result=74%
compound="Cl.N=C(NC(=N)N1CCC1)Nc1ccc(C(F)(F)F)cc1 [Example 25, hydrochloride]" result=96.3%

State recorded inhibition at 100 µM for all listed compounds.
1. Cl.N=C(NC(=N)N1CCCC1)Nc1ccc(Cl)c(Cl)c1 [Example 63, hydrochloride]
2. Cl.N=C(NC(=N)N1CCCCC1)Nc1ccc(S(=O)(=O)O)cc1 [Example 42, hydrochloride]
3. Cl.N=C(NC(=N)N1CCCC1)Nc1ccc(C(F)(F)F)c(F)c1 [Example 48, hydrochloride]

1. 97.6%
2. 23.2%
3. 101%
